biological target: T1, cynomolgus LAG-3 expressed on HEK 293F cells (cynomolgus); experiment: FACS, HEK 293F cynoLAG-3 cells
T1 construct: whole, on cells
measurementName: pEC50
A value of pEC50 is the negative decimal logarithm of a concentration given in moles per litre.

Give pEC50 for mAb742 (antibody, V domains shown, murine hybridoma anti-LAG-3 mAb) VH: QGQLQQSGAELVRPGASVTLSCKASGYTFNDYEMHWVKQTPVHGLEWIGAIDPETGGTAYNQKFKGKAILTADKSSSTAYMELRSLTSEDSAVYYCIRWGSTVFPYWGQGTLVTVS VL: DGVLTQTPLSLPVNIGDQASISCKSTKSLLNSDGFTYLDWYLQKPGQSPQLLIYLVSNRFSGVPDRFSGSGSGTDFTLKISRVEAEDLGVYYCFQSNYLPWTFGGGTKLEIK 7.25

Look up and state reported pEC50 for mAb747 (antibody, V domains shown, murine hybridoma anti-LAG-3 mAb; also called 3502-mAb747) VH: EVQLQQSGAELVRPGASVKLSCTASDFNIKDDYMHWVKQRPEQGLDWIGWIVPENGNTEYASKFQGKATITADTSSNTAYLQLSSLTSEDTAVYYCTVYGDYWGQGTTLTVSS VL: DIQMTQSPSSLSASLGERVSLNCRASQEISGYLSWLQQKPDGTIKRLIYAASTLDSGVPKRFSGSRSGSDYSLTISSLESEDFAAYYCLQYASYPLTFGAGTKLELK 8.51

Fill in pEC50 for record mAb749 (antibody, V domains shown, murine hybridoma anti-LAG-3 mAb) VH: EVQLQQSGAELVRPGASVKVSCTASDFNIKDDYVHWVKQRPEQGLEWIGWIDPENGDTEYASKFQGKATITADTSSNTAYLQLSSLTSEDTAVYFCSTWDAEENYWGQGTTLSVSS VL: DIVLTQAAPSVPVTPGESVSISCRSSKSLLHSNGNTYLYWFLQRPGQSPQVLIYRMSNLASGVPVRFSGSGSGTAFTLRISRVEAEDVGVYYCMQHLEYPFTFGSGTKLEIK 7.84

Where do these numbers come from? They come from patent US20210188980A1.
